APTT for assorted compounds
# Species on record: Rattus norvegicus
# ASSAY_COMMENT: Open TG-GATES - Regimen: Single
# Format: toxicity, organism-based, Sprague-Dawley
# Set-up: regimen Single, gender Male, age 6 weeks
# SETTINGS: in vivo, po, 300 mg/kg, 24 h, tissue Blood, route gavage, dose level Middle
MEASURE: APTT (s)

compound="C[C@H](CS)C(=O)N1CCC[C@H]1C(=O)O [CAPTOPRIL]" quantitative_result=16.5
compound="CCc1cc(C(N)=S)ccn1 [ETHIONAMIDE]" quantitative_result=17.5
compound="Clc1ccccc1CN1CCc2sccc2C1 [TICLOPIDINE]" quantitative_result=19.8
compound="O=C(O)c1cc(/N=N/c2ccc(S(=O)(=O)Nc3ccccn3)cc2)ccc1O [SULFASALAZINE]" quantitative_result=17.4

---

Property: RALB; scope: individual compounds
# Species on record: Rattus norvegicus
# ASSAY_COMMENT: Open TG-GATES - Regimen: Single
# Assay type: toxicity, organism-based, Sprague-Dawley
# Design: regimen Single, gender Male, age 6 weeks
# SETTINGS: in vivo, po, 1000 mg/kg, 6 h, tissue Plasma, route gavage, dose level High
MEASURE: RALB

compound=O=C(O)c1cn(C2CC2)c2cc(N3CCNCC3)c(F)cc2c1=O measure=RALB result="3.7 g/dL"
compound=O=C(O)c1cc(/N=N/c2ccc(S(=O)(=O)Nc3ccccn3)cc2)ccc1O measure=RALB result="3.4 g/dL"
compound=Clc1ccccc1CN1CCc2sccc2C1 measure=RALB result="3.4 g/dL"
compound=C[C@H](CS)C(=O)N1CCC[C@H]1C(=O)O measure=RALB result="3.6 g/dL"
compound="CCc1cc(C(N)=S)ccn1 [ETHIONAMIDE]" measure=RALB result="3.6 g/dL"

---

# Species: Rattus norvegicus
# ASSAY_COMMENT: Open TG-GATES - Regimen: Single
# Assay type: toxicity, organism-based, Sprague-Dawley
# Parameters: regimen Single, gender Male, age 6 weeks
# SETTINGS: in vivo, po, 0 mg/kg, 6 h, tissue Blood, route gavage, dose level Control
MEASURE: Hb (g/dL)

compound=C[C@H](CS)C(=O)N1CCC[C@H]1C(=O)O measure=Hb reading_unit=g/dL quantitative_result=13.5
compound="CSc1ccc2c(c1)N(CCC1CCCCN1C)c1ccccc1S2 (stereo not given)" measure=Hb reading_unit=g/dL quantitative_result=13.7
compound=Clc1ccccc1CN1CCc2sccc2C1 measure=Hb reading_unit=g/dL quantitative_result=13.4
compound="NC(=O)N1c2ccccc2C=Cc2ccccc21 [CARBAMAZEPINE]" measure=Hb reading_unit=g/dL quantitative_result=13.7
compound=O=C(O)c1cc(/N=N/c2ccc(S(=O)(=O)Nc3ccccn3)cc2)ccc1O measure=Hb reading_unit=g/dL quantitative_result=13.2

---

# Species on record: Rattus norvegicus
# ASSAY_COMMENT: Open TG-GATES - Regimen: Daily Repeat
# Format: toxicity, organism-based, Sprague-Dawley
# Parameters: regimen Daily Repeat, gender Male, age 6 weeks
# SETTINGS: in vivo, po, 0 mg/kg, […], tissue Blood, route gavage, dose level Control, time 7 day
The reader will find reported PT values listed item by item below.
MEASURE: PT (s)

compound="O=C(O)c1cn(C2CC2)c2cc(N3CCNCC3)c(F)cc2c1=O [CIPROFLOXACIN]" quantitative_result=11.9
compound="CSc1ccc2c(c1)N(CCC1CCCCN1C)c1ccccc1S2 (stereo unspecified) [THIORIDAZINE]" quantitative_result=11.6
compound="NC(=O)N1c2ccccc2C=Cc2ccccc21 [CARBAMAZEPINE]" quantitative_result=11.9
compound="NC(=O)N/N=C/c1ccc([N+](=O)[O-])o1 [NITROFURAZONE]" quantitative_result=14.4
compound="CCc1cc(C(N)=S)ccn1 [ETHIONAMIDE]" quantitative_result=11.5
compound="O=C(O)c1cc(/N=N/c2ccc(S(=O)(=O)Nc3ccccn3)cc2)ccc1O [SULFASALAZINE]" quantitative_result=12.3
compound="CN(C)CCC=C1c2ccccc2CCc2ccccc21 [AMITRIPTYLINE]" quantitative_result=15.2
compound="COc1ccc(Cc2nccc3cc(OC)c(OC)cc23)cc1OC [PAPAVERINE]" quantitative_result=15.7
compound="Cn1c(=O)c2[nH]cnc2n(C)c1=O.O [THEOPHYLLINE]" quantitative_result=15.8
compound="COc1ccc2c(c1)c(CC(=O)O)c(C)n2C(=O)c1ccc(Cl)cc1 [INDOMETHACIN]" quantitative_result=11.8
compound="Clc1ccccc1CN1CCc2sccc2C1 [TICLOPIDINE]" quantitative_result=11.4

---

# Species: Rattus norvegicus
# ASSAY_COMMENT: Open TG-GATES - Regimen: Single
# Assay type: toxicity, organism-based, Sprague-Dawley
# Design: regimen Single, gender Male, age 6 weeks
# SETTINGS: in vivo, po, 0 mg/kg, 24 h, tissue Blood, route gavage, dose level Control
MEASURE: Hb (g/dL)

compound=O=C(O)c1cc(/N=N/c2ccc(S(=O)(=O)Nc3ccccn3)cc2)ccc1O reading_unit=g/dL quantitative_result=13.3
compound=CC(=O)Oc1ccccc1C(=O)O reading_unit=g/dL quantitative_result=13.8
compound="CSc1ccc2c(c1)N(CCC1CCCCN1C)c1ccccc1S2 (stereo not given)" reading_unit=g/dL quantitative_result=13.2
compound=O=C(O)c1cn(C2CC2)c2cc(N3CCNCC3)c(F)cc2c1=O reading_unit=g/dL quantitative_result=13.1
compound="CCc1cc(C(N)=S)ccn1 [ETHIONAMIDE]" reading_unit=g/dL quantitative_result=13.9
compound=COc1cc2c(c3oc(=O)c4c(c13)CCC4=O)[C@@H]1C=CO[C@@H]1O2 reading_unit=g/dL quantitative_result=12.7
compound=COc1ccc(Cc2nccc3cc(OC)c(OC)cc23)cc1OC reading_unit=g/dL quantitative_result=13.5
compound="NC(=O)N1c2ccccc2C=Cc2ccccc21 [CARBAMAZEPINE]" reading_unit=g/dL quantitative_result=13.7
compound=Clc1ccccc1CN1CCc2sccc2C1 reading_unit=g/dL quantitative_result=13.7
compound=CN(C)CCC=C1c2ccccc2CCc2ccccc21 reading_unit=g/dL quantitative_result=12.5

---

# Species: Rattus norvegicus
# ASSAY_COMMENT: Open TG-GATES - Regimen: Daily Repeat
# Type: toxicity, organism-based, Sprague-Dawley
# Parameters: regimen Daily Repeat, gender Male, age 6 weeks
# SETTINGS: in vivo, po, 0 mg/kg, […], tissue Blood, route gavage, dose level Control, time 28 day
MEASURE: Fbg (mg/dL)

compound="CCc1cc(C(N)=S)ccn1 [ETHIONAMIDE]" reading_unit=mg/dL quantitative_result=235.8
compound="NC(=O)N1c2ccccc2C=Cc2ccccc21 [CARBAMAZEPINE]" reading_unit=mg/dL quantitative_result=212.8
compound="NC(=O)N/N=C/c1ccc([N+](=O)[O-])o1 [NITROFURAZONE]" reading_unit=mg/dL quantitative_result=275.6
compound="COc1ccc2c(c1)c(CC(=O)O)c(C)n2C(=O)c1ccc(Cl)cc1 [INDOMETHACIN]" reading_unit=mg/dL quantitative_result=256.8
compound="Cn1c(=O)c2[nH]cnc2n(C)c1=O.O [THEOPHYLLINE]" reading_unit=mg/dL quantitative_result=303
compound="CN(C)CCC=C1c2ccccc2CCc2ccccc21 [AMITRIPTYLINE]" reading_unit=mg/dL quantitative_result=253
compound="O=C(O)c1cc(/N=N/c2ccc(S(=O)(=O)Nc3ccccn3)cc2)ccc1O [SULFASALAZINE]" reading_unit=mg/dL quantitative_result=217.8
compound="CC(=O)Oc1ccccc1C(=O)O [ASPIRIN]" reading_unit=mg/dL quantitative_result=210.8
compound="COc1ccc(Cc2nccc3cc(OC)c(OC)cc23)cc1OC [PAPAVERINE]" reading_unit=mg/dL quantitative_result=315.8
compound="CCCC(CCC)C(=O)O [VALPROIC ACID]" reading_unit=mg/dL quantitative_result=227.8
compound="CSc1ccc2c(c1)N(CCC1CCCCN1C)c1ccccc1S2 (stereo not drawn) [THIORIDAZINE]" reading_unit=mg/dL quantitative_result=234.6
compound="O=C(O)c1cn(C2CC2)c2cc(N3CCNCC3)c(F)cc2c1=O [CIPROFLOXACIN]" reading_unit=mg/dL quantitative_result=235.2
compound="Clc1ccccc1CN1CCc2sccc2C1 [TICLOPIDINE]" reading_unit=mg/dL quantitative_result=233.4

---

# Species: Rattus norvegicus
# ASSAY_COMMENT: Open TG-GATES - Regimen: Single
# Type: toxicity, organism-based, Sprague-Dawley
# Set-up: regimen Single, gender Male, age 6 weeks
# SETTINGS: in vivo, po, 100 mg/kg, 9 h, tissue Plasma, route gavage, dose level Low
MEASURE: IP (mg/dL)

compound="CCc1cc(C(N)=S)ccn1 [ETHIONAMIDE]" measure=IP quantitative_result=10.7
compound="O=C(O)c1cc(/N=N/c2ccc(S(=O)(=O)Nc3ccccn3)cc2)ccc1O [SULFASALAZINE]" measure=IP quantitative_result=10.2
compound="Clc1ccccc1CN1CCc2sccc2C1 [TICLOPIDINE]" measure=IP quantitative_result=10
compound="O=C(O)c1cn(C2CC2)c2cc(N3CCNCC3)c(F)cc2c1=O [CIPROFLOXACIN]" measure=IP quantitative_result=11.5
